What % Inhibition was measured for each of the following?
# Tested on: Plasmodium falciparum
# assay_notes: Confirmatory screen in NF54 nanoGlo assay, in single point, at 2uM, 72h
# Assay type: functional, Erythrocyte
# test_conditions: timepoint 72 hour
Screen size: about 4,800 compounds; about 420 (8.8%) showed an effect of 50% or more. The full list was thinned out, with strong results kept by preference.
Answers are plain numbers, in %.

CC(C)(C)OC(=O)NC1CCCN(CC2CN(c3ccc(F)cc3)C(=O)O2)C1 (centres undefined) | -8
Cc1nc(C(=O)Nc2[nH]c(=O)ncc2F)c(-c2ccccc2)o1 | 85
Cc1ccc(-c2cc(C(=O)Nc3nnc(C(C)C)s3)no2)cc1F | 39
CCOC(=O)c1c(C(F)(F)F)[nH]n2c(C(F)F)nnc12 | -3
COc1nc(N)nc(C(Cl)(Cl)Cl)n1 | 0

Each molecule below has a reported value. Please supply its % Inhibition.
1. CC[C@H](O)CN1CCC(Nc2ncnc3cc(Cl)ccc23)CC1
2. COc1ccc(C(=O)N(C(=O)c2ccc(OC)cc2)c2c3c(nc4ccccc24)CCCC3)cc1
3. CC1CC(Nc2ncnc3cc(Br)ccc23)CCN1C (centres undefined)
4. O=S(=O)(N[C@H](c1nccs1)C1CC1)c1c(F)cccc1Cl
5. CN(C)Cc1cn(C[C@H]2C[C@@H](NC(=O)Nc3ccc4c(c3)OCCO4)[C@H](O)[C@@H]2O)nn1
6. CCCc1noc([C@H](C)OC(=O)c2cc[nH]n2)n1

(A)
1. 42
2. 72
3. 96
4. 0
5. 0
6. -7

Each molecule below has a reported value. Please supply its % Inhibition.
1. CC(C)c1nc(C(=O)Nc2ccccc2CN2CCNC2=O)cs1
2. Cc1ccc(CN2CCN(CC(=O)NC3CCCCC3C)C2=O)cc1 (centres undefined)
3. COc1ccc(C)cc1-n1ccc(C(=O)N2CCCc3c(C(N)=O)cccc32)n1
4. Cc1cnc(C(=O)N2CCC[C@H]2c2nc(C3CCOCC3)no2)cn1
5. Cc1nn(C)cc1[C@@H]1CC(=O)Nc2c1cnn2C(C)(C)C

(A)
1. 3
2. -10
3. -11
4. 0
5. -14

* * *

What % Inhibition was measured for each of the following?
# System: Plasmodium falciparum
# assay_notes: Confirmatory screen in NF54 nanoGlo assay, in single point, at 2uM, 72h
# Format: functional, Erythrocyte
# test_conditions: timepoint 72 hour
The campaign covered roughly 4,800 compounds. About 420 (8.8%) showed an effect of 50% or more. Only a selection was taken, and strong results are over-represented in it overall.
Answers are plain numbers, in %.

# annotated cases, reported % Inhibition shown
COc1ccc(NC(=O)C2=NN(CC(=O)Nc3cccc(OC)c3)C(=O)CC2)cc1 | -12
COc1ccc(OC)c(NC(=O)CN2CCc3[nH]c4ccc(F)cc4c(=O)c3C2)c1 | 72
COc1cccc(CNC(=O)Cn2c(=O)n(Cc3cccc(OC)c3)c(=O)c3sccc32)c1 | 2

Each compound below has a reported value. Please supply its % Inhibition.
1. COc1cc(C)c2[nH]c3c(c(=O)c2c1)CN(CC(=O)Nc1ccc(C)c(F)c1)CC3
2. CCc1cc(C(=O)N(CC)c2ccccc2)c2c(C)noc2n1
3. CC(=O)c1cccc(NC(=O)[C@@]23CCC(=O)N2c2ccccc2C(=O)N3C)c1
4. COc1cc(CNCc2cccs2)ccc1OCc1ccccc1C
5. Cc1cc(NC(=O)Cn2ncnc2-c2cccc(C#N)c2)n(C)n1
6. CC(=O)c1cccc(NC(=O)c2nonc2C)c1
7. CCCN1C(=O)c2ccccc2N2C(=O)CC[C@@]12C(=O)Nc1ccccc1

(A)
[0, -7, 76, -7, -1, -11, 91]

* * *

# Tested on: Plasmodium falciparum
# assay_notes: Confirmatory screen in NF54 nanoGlo assay, in single point, at 2uM, 72h
# Type: functional, Erythrocyte
# test_conditions: timepoint 72 hour
About 420 (8.8%) of roughly 4,800 compounds showed an effect of 50% or more. The entries come from a sample that favours strong results as a whole.
endpoint_label: % Inhibition (%)
Give bare numbers, in %.

Cn1nc(C(F)(F)F)cc1B1OC(C)(C)C(C)(C)O1 | 4
COc1nc2ncnc(OC)c2nc1C#N | 3
COc1ccc(C(=O)C[n+]2nc(CNc3ccc(Br)cc3)n3c2CCCCC3)cc1 | 84
COc1ccc(CC(=O)NCc2nnc3n2CCC3)cc1 | 12
Cc1nc2ccccc2cc1OCc1ccc(F)cc1 | 3
COc1cccc(C(=O)C[n+]2cc(-c3ccc(Br)cc3)n(C)c2N)c1 | -3
O=c1cc(N2CCN(C3CCCC3)CC2)cnn1Cc1ccccc1 | -13
Cc1nccc(NC(=O)C2CCC(F)(F)CC2)c1Cl | -4
CCC[C@]1(C)NC(=O)N(c2csc(-c3ccccc3)n2)C1=O | -3
O=S(=O)(c1ccc(F)c(Cl)c1)N1CC[C@H](Oc2ccncc2Cl)C1 | 75

Each compound below has a reported value. Please supply its % Inhibition.
1. O=S(=O)(c1ccco1)N1CC[C@H](Oc2ccccc2)C1
2. CCc1n[nH]c(C(=O)N2CC3CCCN3CC2CC)c1Br (configuration not stated)

(A)
1: 2; 2: 7

* * *

# Tested on: Plasmodium falciparum
# assay_notes: Confirmatory screen in NF54 nanoGlo assay, in single point, at 2uM, 72h
# Assay type: functional, Erythrocyte
# test_conditions: timepoint 72 hour
The campaign covered roughly 4,800 compounds. About 420 (8.8%) showed an effect of 50% or more. This excerpt belongs to a sample that is enriched for strong results.
What % Inhibition was measured for each of the following?
Numbers only, in %.

# annotated cases, reported % Inhibition shown
N#Cc1ccc(N[C@H]2CCCN(Cc3ccc(F)cc3F)C2=O)cn1 | -10
Clc1ccc(-c2onc3c2CCCC3)cc1 | 2
COc1ccccc1C1c2[nH]c3ccccc3c2C[C@H]2C(=O)N(CC(O)c3ccccc3)CC(=O)N12 (stereo partly specified) | 33
N#CC1CCC(Nc2cnn(-c3ccncc3)c2)CC1 (stereo unspecified) | 5
Cc1ccc(N2CCN(S(=O)(=O)c3ccccc3)[C@@H](C)C2=O)cc1F | -5
O=C(NC1CCCCCC1)c1cn(CC2(O)CCN(Cc3ccccc3)CC2)nn1 | -4
CCCn1c(C)cnc1C1CN(S(=O)(=O)c2ccc(C)c(F)c2)C1 | -6
Cc1cc(OC[C@@H](O)CNC(C)(C)CC(C)(C)C)cc(C)c1Cl | 67

Each molecule below has a reported value. Please supply its % Inhibition.
1. Cc1cc(C(=O)N[C@@H](C)c2nc(-c3cccnc3)cs2)cc(O)n1
2. Cn1nnnc1NC/C=C/c1ccccc1
3. O=C(O)c1nccc(C(F)(F)F)c1Cl
4. Nc1c(-c2nc3ccccc3[nH]2)c2nc3ccccc3nc2n1Cc1ccccc1F

(A)
53
-4
-19
64

Each molecule below has a reported value. Please supply its % Inhibition.
1. CCOC(=O)c1nc(-c2cccnc2)cs1
2. CC[C@H]1Cn2c(C(=O)N3CCN(c4ccccn4)CC3)cc3c(Cl)ccc(c32)O1
3. CCCN1CCN(CC(=O)Nc2sccc2C#N)c2cc(F)ccc21

(A)
-12
-8
2

Each molecule below has a reported value. Please supply its % Inhibition.
1. CC(C)C(=O)N1CC[C@H](CC(=O)NCc2ccncc2)C1
2. CCOC(=O)COc1cc(N)c(F)cc1Cl
3. Cn1cncc1CC(=O)Nc1ccnc(NC(=O)OC(C)(C)C)c1
4. CCN(CCC1CCN(C(=O)Nc2ccc(OC3CCOCC3)c(C)c2)CC1)CC(C)C

(A)
1. 0
2. -10
3. 96
4. -3

Each molecule below has a reported value. Please supply its % Inhibition.
1. O=C(Nc1onc2c1CCC2)c1ccc2ccccc2c1
2. CCOC(=O)CNc1ccc(F)c(Cl)c1
3. O=C(C[C@H]1CCC(=O)N(Cc2ccccc2)CC1)NC1CCN(Cc2ccccc2)CC1
4. COc1ccc([C@@]2(C)NC(=O)N(CC(=O)N3CC(=O)Nc4ccccc43)C2=O)cc1OC
5. O=C(c1[nH]nc(C2CC2)c1Br)N1CCC12CCC2
6. Cc1ncccc1C(=O)NCCc1csc(-c2ccccc2)n1

(A)
1: 45; 2: -6; 3: -1; 4: 2; 5: -8; 6: -11

* * *

# Test system: Plasmodium falciparum
# assay_notes: Confirmatory screen in NF54 nanoGlo assay, in single point, at 2uM, 72h
# Type: functional, Erythrocyte
# test_conditions: timepoint 72 hour
In all, about 4,800 compounds went through this assay and about 420 (8.8%) showed an effect of 50% or more. Shown is part of a subset that was picked to be rich in strong results.
endpoint_label: % Inhibition (%)
Answers are plain numbers, in %.

# annotated cases, reported % Inhibition shown
CCS(=O)(=O)Nc1ccc(S(=O)(=O)NC[C@@H](c2ccccc2OC)N2CCCCC2)c(C)c1 | -1
Fc1ccccc1N1CCN(C2CCN(Cc3c[nH]c4ccccc34)CC2)CC1 | 4
O=C(c1ccccc1)N1N=C(C(F)(F)F)C2CCCCCC21O (stereo not given) | -11
Cc1ccsc1-c1noc([C@@H]2COCCN2C)n1 | -7

(Q) State its % Inhibition: COc1ccc2[nH]c3c(c2c1)CC(C(=O)O)NC3c1ccc(OC)c(CN2CCN(c3ccccc3F)CC2)c1 (stereo not given)
(A) 76
